Values from patent US20110086759A1

# Test system: Alopecurus myosuroides (ALOMY)
# assay-method-text: Pre-emergence biological efficacy, glasshouse pot test
# Format: in vivo
# measurement-conditions: 312 h, pre-emergence, rate 1,000 g/ha, evaluated after 13 days (100=total damage to plant; 0=no damage), read-out: Percentage damage caused to weed species, ALOMY
property-name: pest or weed control at 1000 g/ha (%)
Note: unit % is implicit; provide only the numeric part.

Some solved entries appear below for comparison.
> print(dat)
                                   compound                      property.name  recorded.result
1  COC(=O)c1nc(C2CC2)nc(N(CC=C(C)C)Cc2ccccc2C(F)(F)F)c1Cl [Compound 152-75]  pest or weed control at 1000 g/ha               20
2  COC(=O)c1nc(C2CC2)nc(N(CCC#N)Cc2ccccc2)c1Cl [Compound 161-60]  pest or weed control at 1000 g/ha                0
3  COC(=O)c1nc(C2CC2)nc(N(C)Cc2ccc(Cl)c(Cl)c2)c1Cl [Compound 5-105]  pest or weed control at 1000 g/ha               10
4  COC(=O)c1nc(-c2ccc(Cl)c(F)c2F)nc(NCc2ccco2)c1Cl [Compound 225-48]  pest or weed control at 1000 g/ha               60
5  CCN(Cc1ccccc1)c1nc(C2CC2)nc(C(=O)OC)c1Cl [Compound 6-60]  pest or weed control at 1000 g/ha               20
6  C=Cc1c(NCc2ccco2)nc(C2CC2)nc1C(=O)OC [Compound 31-125]  pest or weed control at 1000 g/ha               20
7  COCCN(C/C=C/c1ccco1)c1nc(C2CC2)nc(C(=O)OC)c1Cl [Compound 160-256]  pest or weed control at 1000 g/ha               10

Shift focus to the following entry.
Prompt: Supply recorded pest or weed control at 1000 g/ha for COC(=O)c1nc(C2CC2)nc(N(C)Cc2ccc(C(F)(F)F)cc2)c1Cl [Compound 5-77] here.
Response: 0
